The measurements presented in this section are drawn from the supplement of paper PMC4466140.

Entries annotated with measured SPOT peptide array binding signal intensity
Target: CaHof1
Test: SPOT peptide array binding signal intensity (averaged, normalized) (arbitrary units (background-subtracted, floor 0; scale differs between SH3 domains)); higher = stronger binding of the SH3 domain to the peptide
experimental_endpoint: SPOT peptide array binding signal intensity

> print(dat)
            binder  recorded.result
1  FFRRSELYLPNSSKA              ≤ 0
2  QPPLPSSAPPIPTSH              ≤ 0
3  NPNRRAPRRPLSTQH              ≤ 0
